Measurement description: ABTS radical scavenging assay
Type: biochemical
Test settings: main flavonoids and positive controls (Table 5)
Marks after values point to notes of the source that are not given here.
Entries and their ABTS IC50

Here is how some molecules turned out for ABTS IC50.
COc1cc(-c2cc(=O)c3c(O)cc(OC4OC(CO)C(O)C(O)C4OC4OCC(O)(CO)C4O)cc3o2)ccc1O (centres unmarked) [Graveobioside B]
29.43 ± 1.33 ^e μg/mL
COc1cc(-c2cc(=O)c3c(O)cc(O[C@@H]4O[C@H](CO)[C@@H](O)[C@H](O)[C@H]4O)cc3o2)ccc1O
46.64 ± 1.24 ^d μg/mL
O=c1cc(-c2ccc(O)c(O)c2)oc2cc(O)cc(O)c12
4.58 ± 0.02 ^i,j μg/mL
O=c1cc(-c2ccc(O)c(O)c2)oc2cc(OC3OC(CO)C(O)C(O)C3OC3OCC(O)(CO)C3O)cc(O)c12 (centres unmarked) [Graveobioside A]
6.88 ± 0.05 ^h μg/mL
O=c1cc(-c2ccc(O)c(O)c2)oc2cc(O[C@@H]3O[C@H](CO)[C@@H](O)[C@H](O)[C@H]3O)cc(O)c12 [Luteolin-7-O-glucoside]
9.41 ± 0.42 ^g μg/mL

Query: Please supply the value of reported ABTS IC50 for the item O=c1cc(-c2ccc(O)cc2)oc2cc(O[C@@H]3O[C@H](CO)[C@@H](O)[C@H](O)[C@H]3O)cc(O)c12 [Apigenin-7-O-Glucoside]
Response: 461.00 ± 11.04 ^b μg/mL

Query: Please supply the value of reported ABTS IC50 for the item O=c1cc(-c2ccc(O)cc2)oc2cc(O)cc(O)c12
Response: 223.63 ± 10.35 ^c μg/mL
